System: DIV17
Assay: qHTS profiling for inhibitors of Plasmodium falciparum proliferation (AID 504749); also: nearly all actives have a fitted effect of over 60% in size; also: potency is read from the fitted curve at half-maximal effect
Settings: P. falciparum in erythrocytes, SYBR Green DNA, 72 h; series mostly up to 28.7 µM
Inconclusive results are not listed. Activity calls are given as the source filed them. Calls follow the shape of the dose curve; as a rule, active = well fitted inhibition curve with a large enough effect; inconclusive = small, poorly fitted or top-dose-only effect; inactive = flat fitted curve, though single readings scatter.
observed property: Potency

                                   molecule      result_value
0    OCCOCCN1CCN(C2=Nc3ccccc3Sc3ccccc32)CC1          inactive
1  C[N+]1(CC2COC(c3ccccc3)(C3CCCCC3)O2)CCCCC1 (configuration not stated)  6.01 µM (active)
2              COc1cc(C)nc(-n2nc(C)cc2OC)n1          inactive
3             CC(=O)N[C@@H](CCC(=O)O)C(=O)O          inactive
4      CC(C)(C)NC[C@H](O)COc1cccc2c1CCCC2=O          inactive
5    Cc1nc(-c2ccc(Cl)cc2)oc1COC(C)(C)C(=O)O          inactive
6  COc1cc(C(=O)NCc2ccc(OCCN(C)C)cc2)cc(OC)c1OC          inactive
7  Cc1ccc(-c2ncc(Cl)cc2-c2ccc(S(C)(=O)=O)cc2)cn1  15.1 µM (active)

The observed Potency for `CCOc1cc(OCC)c(C(=O)CCC(=O)O)cc1OCC` when tested with DIV17 stands at inactive

The observed Potency for `C=C[C@@]1(C)CC(=O)[C@]2(O)[C@@]3(C)[C@@H](O)CCC(C)(C)[C@@H]3[C@H](O)[C@H](OC(C)=O)[C@@]2(C)O1` when tested with DIV17 stands at inactive

The observed Potency for CC(C)NCC(O)c1ccc2ccccc2c1 (configuration not stated) when tested with DIV17 stands at 6.75 µM (active)

The observed Potency for `Oc1c(Cl)cc(Cl)c(Cl)c1Cc1c(O)c(Cl)cc(Cl)c1Cl` when tested with DIV17 stands at 12 µM (active)

---

Test system: Dd2
Assay: qHTS profiling for inhibitors of Plasmodium falciparum proliferation (AID 504749); also: nearly all actives have a fitted effect of over 60% in size
Settings: P. falciparum in erythrocytes, SYBR Green DNA, 72 h; series mostly up to 28.7 µM
Records with an inconclusive call do not appear. The source made the active and inactive calls. Calls follow the shape of the dose curve; as a rule, active = well fitted inhibition curve with a large enough effect; inconclusive = small, poorly fitted or top-dose-only effect; inactive = flat fitted curve, though single readings scatter.
Choose one outcome from this list and give only that: Y = active, N = inactive

A selection of reference data follows.
In [3]: df
Out[3]:
                                   compound  target_entity  assigned_category
0                       NC(N)=NCc1cccc(I)c1            Dd2                  N
1         COc1ccc(/C=N/NC(=O)c2ccncc2)cc1OC            Dd2                  N
2       CN(C)CCN1C(=O)c2ccccc2N(C)c2ccccc21            Dd2                  Y
3  O=[N+]([O-])c1cccc(S(=O)(=O)NCCNS(=O)(=O)c2cccc([N+](=O)[O-])c2)c1            Dd2                  N
4            Cl/C(=C\n1cncn1)c1ccc(Cl)cc1Cl            Dd2                  N

Consider the additional compound presented here.
Test call, this compound: COC(=O)C(c1ccccc1Cl)N1CCc2sccc2C1 (stereo unspecified)
N

---

Test system: PC15
Experiment: qHTS profiling for inhibitors of Plasmodium falciparum proliferation (AID 504749); also: nearly all actives have a fitted effect of over 60% in size; also: potency is read from the fitted curve at half-maximal effect
Settings: P. falciparum in erythrocytes, SYBR Green DNA, 72 h; series mostly up to 28.7 µM
Results filed as inconclusive are left out. Activity calls are given as the source filed them. Calls follow the shape of the dose curve; as a rule, active = well fitted inhibition curve with a large enough effect; inconclusive = small, poorly fitted or top-dose-only effect; inactive = flat fitted curve, though single readings scatter.
observed property: Potency

In [3]: df
Out[3]:
                                   compound      result_value
0  Cc1ccc(O)c([C@H](CCN(C(C)C)C(C)C)c2ccccc2)c1  3.16 µM (active)
1  COC(=O)C(c1ccccc1Cl)N1CCc2sccc2C1 (centres undefined)          inactive
2  CCC1Nc2cc(Cl)c(S(N)(=O)=O)cc2S(=O)(=O)N1 (centres undefined)          inactive
3              CC(=O)Nc1ncc([N+](=O)[O-])s1          inactive
4                  NS(=O)(=O)Cc1noc2ccccc12          inactive
5        CCOc1cc(OCC)c(C(=O)CCC(=O)O)cc1OCC          inactive
6  COc1ccc(CCN(C)CCCN2CCc3cc(OC)c(OC)cc3CC2=O)cc1OC          inactive
7  CC(C)NCC(O)c1ccc2ccccc2c1 (centres undefined)  7.94 µM (active)

Shifting focus to the compound that follows.
The observed Potency for `FC(F)(F)C(F)(F)C(F)(F)C(F)(F)C(F)(F)C(F)(F)C(F)(F)C(F)(F)Br` when tested with PC15 stands at inactive

---

Test system: DIV30
Assay: qHTS profiling for inhibitors of Plasmodium falciparum proliferation (AID 504749); also: nearly all actives have a fitted effect of over 60% in size
Settings: P. falciparum in erythrocytes, SYBR Green DNA, 72 h; series mostly up to 28.7 µM
Records with an inconclusive call do not appear. Calls of active or inactive are those of the source. Calls follow the shape of the dose curve; as a rule, active = well fitted inhibition curve with a large enough effect; inconclusive = small, poorly fitted or top-dose-only effect; inactive = flat fitted curve, though single readings scatter.
Choose one outcome from this list and give only that: active, inactive

A selection of reference data follows.
>>> df
                                   compound  assigned_category
0    COc1cc(O)c(C(=O)c2ccccc2)cc1S(=O)(=O)O           inactive
1  CCC1Nc2cc(Cl)c(S(N)(=O)=O)cc2S(=O)(=O)N1 (stereo not given)           inactive
2  CN1CCC[C@@H]1CCO[C@](C)(c1ccccc1)c1ccc(Cl)cc1           inactive
3                     CC(=O)NC(=O)c1ccccc1O           inactive
4  CN1CCN(c2cc3c(cc2F)c(=O)c(C(=O)O)cn3-c2ccc(F)cc2)CC1           inactive

Test call, this compound: `CCCCCN=C(N)N/N=C/c1c[nH]c2ccc(OC)cc12`
active

Test call, this compound: `Cc1ccc2c(Br)cc(Br)c(O)c2n1`
active

Test call, this compound: `NC(=O)c1ccccc1O`
inactive

Test call, this compound: FC1(F)C(F)(F)C(F)(F)C2(F)C(F)(F)C(F)(F)C(F)(F)C(F)(F)C2(F)C1(F)F (stereo not given)
inactive

Test call, this compound: C[N+]1(CC2COC(c3ccccc3)(C3CCCCC3)O2)CCCCC1 (stereo not given)
active

Test call, this compound: `CC(=O)OC[C@H]1O[C@@H](n2ncc(=O)[nH]c2=O)[C@H](OC(C)=O)[C@@H]1OC(C)=O`
inactive

Test call, this compound: `O=C(O)CCC(=O)Nc1ccc(S(=O)(=O)Nc2nccs2)cc1`
inactive

Test call, this compound: `O=C(O)c1ccc(S(=O)(=O)N(Cl)Cl)cc1`
inactive

Test call, this compound: `N=C(N)N1CCc2ccccc2C1`
inactive

---

Test system: N140
Experiment: qHTS profiling for inhibitors of Plasmodium falciparum proliferation (AID 504749); also: nearly all actives have a fitted effect of over 60% in size
Settings: P. falciparum in erythrocytes, SYBR Green DNA, 72 h; series mostly up to 28.7 µM
Protocol: NIH National Institute of Allergy and Infectious Diseases [NIAID] NIH Chemical Genomics Center [NCGC] […] Because mature erythrocytes lack DNA, only Plasmodium-derived DNA is detected. NCGC Assay Protocol Summary: The SYBR Green viability assay was adapted from a method described previously (Plouffe et al., 2008). […] The following morning, fluorescence intensity at 485(14) nm excitation and 535(25) nm emission wavelengths was measured on an EnVision (Perkin Elmer) plate reader. […]
Results filed as inconclusive are left out. Activity calls are given as the source filed them. The call rests on the fitted dose curve; in most records, active means well fitted inhibition curve with a large enough effect; inconclusive means small, poorly fitted or top-dose-only effect; inactive means flat fitted curve, though single readings scatter.
Choose one outcome from this list and give only that: t (active), f (inactive)

A selection of reference data follows.
>>> df
                      smiles_representation  assigned_category
0  NS(=O)(=O)c1cc(C(=O)O)cc(N2CCCC2)c1Oc1ccccc1                  f
1      CCCN(CCc1cccs1)[C@H]1CCc2c(O)cccc2C1                  t
2  COc1ccc(C(Cl)=C(c2ccc(OC)cc2)c2ccc(OC)cc2)cc1                  t
3              Cc1cccc(C)c1NC(=O)CN1CCCCCC1                  f
4          COc1ccc2c(c1)c1c3n2CCN(C)C3=NCC1                  f

Consider the additional compound presented here.
Test call, this compound: `Nc1ccc(S(=O)(=O)Nc2cnc3ccccc3n2)cc1`
f

---

Assay: qHTS of pediatric cancer cell lines to identify multiple opportunities for drug repurposing: Primary screen for MG 63 (6-TG R) cells (AID 1347105); also: nearly all actives have a fitted effect of over 50% in size
Conditions: MG 63 (6-TG R) viability, CellTiter-Glo, 48 h; series mostly up to 46 µM
Inconclusive results are not listed. Activity calls are given as the source filed them. The call rests on the fitted dose curve; in most records, active means well fitted cell-killing curve with a large enough effect; inconclusive means small, poorly fitted or top-dose-only effect; inactive means no such curve, though single readings can be large or run the other way.
Choose one outcome from this list and give only that: active, inactive

A selection of reference data follows.
In [3]: df
Out[3]:
                                   molecule  assigned_category
0  CCOc1ccccc1OCCN[C@H](C)Cc1ccc(OC)c(S(N)(=O)=O)c1           inactive
1  CCc1nn(CCCN2CCN(c3cccc(Cl)c3)CC2)c(=O)n1CCOc1ccccc1           inactive
2            Nc1ccc(S(=O)(=O)NCc2ccccc2)cc1           inactive
3  COc1ccc(-c2cc(C(F)F)nn2-c2ccc(S(N)(=O)=O)cc2)cc1F           inactive
4                  O=C(O)CCc1nc2ccccc2[nH]1           inactive
5                    CCCCCCCC/C=C\CCCCCCCCN           inactive
6  Nc1nc(Cl)nc2c1ncn2[C@@H]1O[C@H](CO)[C@@H](O)[C@@H]1F             active
7  FC(F)(F)C(F)(F)C(F)(F)C(F)(F)C(F)(F)C(F)(F)C(F)(F)C(F)(F)Br           inactive

Test call, this molecule: `NC(=S)N/N=C/c1cccnc1`
inactive

Test call, this molecule: `CCOC(=O)[C@H](CCc1ccccc1)N[C@@H](C)C(=O)N1[C@H](C(=O)O)C[C@@H]2CCC[C@@H]21`
inactive

Test call, this molecule: CC1(COc2ccc(CC3SC(=O)NC3=O)cc2)CCCCC1 (configuration not stated)
inactive

Test call, this molecule: CC(C)[N+](C)(C)CC(O)COc1cccc2ccccc12 (configuration not stated)
inactive
